Item-by-item account of growth
System: OVCAR-8 ovarian
Experiment: NCI-60 one-dose screen, 48 h (100 = growth as untreated, 0 = no growth, -100 = all killed)
Conditions: 10 µM unless noted
This is part of a sample that, as a whole, favours compounds with a hit. Of some 83,000 tested, about 20% had one in any assay.
Answer with a number only, understood to be in %.

{"columns": ["Molecule", "Experimental target", "growth (%)"],
 "data": [
  ["O=C(c1ccccc1)c1ccc(N2C(=O)C3C4c5ccccc5C(/C=C/C(=O)c5ccccn5)(c5ccccc54)C3C2=O)cc1 (configuration not stated)", "OVCAR-8 ovarian", 26.4],
  ["Cn1cc(Nc2nccc(-c3ccc(N4CCCC4)c(C#N)c3)n2)cn1", "OVCAR-8 ovarian", 47.3],
  ["C=CCO[C@H]1CO[C@H]2[C@@H]1OC[C@@H]2Oc1ccc(Nc2ccnc(Nc3ccc(O[C@H]4CO[C@H]5[C@@H]4OC[C@@H]5OCC=C)c(Cl)c3)n2)cc1Cl", "OVCAR-8 ovarian", -4.18],
  ["CCN(CC)CCOc1ccc(/C(=C(\\C)c2ccc(F)c(OC)c2)c2ccc(Cl)cc2)cc1", "OVCAR-8 ovarian", 17.4],
  ["CS(=O)(=O)c1ccc(-c2nc3cc(Cl)ccc3n2CC(=O)N/N=C/c2ccc(Cl)cc2)cc1", "OVCAR-8 ovarian", 43.6]
]}

Bench note, OVCAR-8 ovarian: O=C(CCc1nc(-c2cccc(Cl)c2)no1)Nc1ccccn1 , growth reads 106

Bench note, OVCAR-8 ovarian: N#Cc1c(-c2ccccc2)nc(SCC2CO2)nc1N1CCOCC1 (configuration not stated) , growth reads 81.8

Bench note, OVCAR-8 ovarian: COc1ccc(N(C)c2nc(Cl)nc3cnn(C)c23)cc1 , growth reads 12.6

Bench note, OVCAR-8 ovarian: CN1C(=O)CCC(N2C(=O)c3cccc(NCCOCCOCCNC(=O)c4cc5c(o4)C(=O)c4ccccc4C5=O)c3C2=O)C1=O (configuration not stated) , growth reads 2.72

Bench note, OVCAR-8 ovarian: Cc1ccc(-n2nnc(C3=NCCc4c3[nH]c3ccc(Cl)cc43)c2C)cc1 , growth reads 66.8

* * *

Tested on: U251 CNS
Assay: NCI-60 one-dose screen, 48 h (100 = growth as untreated, 0 = no growth, -100 = all killed)
Conditions: 10 µM unless noted
The panel holds about 83,000 compounds, 20% with a hit somewhere; the sample as a whole holds those more often. Calls of active or inactive are those of the source. The calls were made as follows: active = growth percent below 10; inactive = the rest.
Item-by-item account of growth

{"columns": ["Compound", "Experimental target", "Assay result"],
 "data": [
  ["COc1cc2c(cc1OC)-c1ccc3cc4c(cc3c1N(CCN1CCCC1)C2)OCO4", "U251 CNS", "-55.7% (active)"],
  ["COC(=O)CCCNC(=O)C(=O)c1c(O)c(O)c(C(C)C)c2cc(C)c(-c3c(C)cc4c(C(C)C)c(O)c(O)c(C(=O)C(=O)NCCCC(=O)OC)c4c3O)c(O)c12", "U251 CNS", "-62.4% (active)"]
]}

The reported growth of the compound CC(=O)Nc1ccc(C(=O)/C=C/c2ccccc2)cc1 was 76.3% (inactive)

* * *

Item-by-item account of growth
System: HOP-62 NSCLC
Experiment: NCI-60 one-dose screen, 48 h (100 = growth as untreated, 0 = no growth, -100 = all killed)
Details: 10 µM unless noted
This is part of a sample that, as a whole, favours compounds with a hit. Of some 83,000 tested, about 20% had one in any assay.
Answer with a number only, understood to be in %.

Recorded growth, per entry:
{"columns": ["Molecule", "Experimental target", "growth [%]"],
 "data": [
  ["COc1cc2c(c(OC)c1OC)C(=O)/C(=C/c1cc(C)c(O)c(C)c1)S2", "HOP-62 NSCLC", 46.5],
  ["Cc1nc(Nc2ccc(S(=O)(=O)Nc3cc(C)on3)cc2)c2ccccc2n1", "HOP-62 NSCLC", 101],
  ["COc1cc(/C=C/C(=O)c2ccc(Nc3nc(Nc4ccccc4)nc(Nc4ccc(Cl)cc4)n3)cc2)cc(OC)c1OC", "HOP-62 NSCLC", 52.7]
]}

Bench note, HOP-62 NSCLC: CCn1nc(C#Cc2c(C)ccc3c(Nc4ccc(Cl)cc4)nccc23)c2c(N)ncnc21 , growth reads -0.0802

Bench note, HOP-62 NSCLC: C[C@H]1[C@H](C)CC[C@]2(C(=O)N3CCN(C)CC3)CC[C@]3(C)C(=CC[C@@H]4[C@@]5(C)C/C(=C/c6cccnc6)C(=O)C(C)(C)[C@@H]5CC[C@]43C)[C@H]12 , growth reads -95.9

Bench note, HOP-62 NSCLC: CCNCCNc1cc(-c2cccc(C(F)(F)F)c2)c(C#N)c2nc3ccccc3n12 , growth reads -75.1

Bench note, HOP-62 NSCLC: O=C(C[C@@]1(O)C(=O)Nc2c(Cl)ccc(Cl)c21)c1ccc(C2CC2)cc1 , growth reads 34.2

Bench note, HOP-62 NSCLC: CN(C)CN1CCN(c2ccc3nc(-c4ccc5nc(-c6ccc(C(F)(F)F)cc6)[nH]c5c4)[nH]c3c2)CC1 , growth reads 57.6

Bench note, HOP-62 NSCLC: OC(COc1cccc2ccccc12)CN1CCN(c2ccccc2)CC1 (stereo not given) , growth reads 90.4

Cited source: PubChem BioAssay (NCI)
